# assaySystem: T1, S100B (human, UniProt P04271 1-92)
# T1 chain: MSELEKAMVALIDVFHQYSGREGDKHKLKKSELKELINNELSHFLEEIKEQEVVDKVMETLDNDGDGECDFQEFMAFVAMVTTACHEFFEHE
# assayProtocol: ITC; 298 K
recordedEndpoint: Kd (µM)
Numbers only here, please. The scale is µM.

Query: Kd; subject: GAMAATYSALNSSKPTPQLKPIESSILAQRRVRKLPSTTL [RSK1 (696-735) peptide]
12
